VALUE_TYPE: melting point

Task: Give the measured melting point of CCc1nc2ccccc2n1-c1cc(N)nc(Nc2ccccc2C)n1 [Cpd 152] .
Result: 119 to 120 °C

Task: Look at this compound and give its reported melting point. COc1ccn2nc(C3CC3)c(-c3cc(N)nc(Nc4ccc(C(F)(F)F)cc4)n3)c2c1 [Cpd 106]
Result: 172 to 174 °C

Task: Look up melting point: Cc1nc2ccc(F)cc2n1-c1cc(N)nc(Nc2ccc(Cl)cc2)n1 [Cpd 135]
Result: 149 to 151 °C

====

VALUE_TYPE: melting point

Task: Could you share which melting point value was measured for `Cc1nc2ccc(F)cn2c1-c1cc(N)nc(Nc2ccc(OC(F)F)cc2)n1` ?
Result: 189 to 190 °C

Task: Which melting point is listed for `Cc1nn2c(=O)n(C)c(C)cc2c1-c1cc(N)nc(Nc2ccc(C(F)(F)F)cc2)n1` ?
Result: 270 to 273 °C

Task: Need melting point, item `CCc1nc2ccc(F)cc2n1-c1cc(N)nc(Nc2ccc(N(C)C)cc2)n1`
Result: 230 to 232 °C

Task: Requested read-out: melting point. Entry: `CCc1nc2ccc(F)cc2n1-c1cc(N)nc(Nc2ccc(OC(F)F)c(F)c2)n1`
Result: 159 to 161 °C

Task: melting point for `Nc1cc(-n2c(C3CC3)nc3ccc(F)cc32)nc(Nc2ccc(OC(F)F)cc2)n1` ?
Result: 177 to 179 °C

Task: Any idea what its melting point is? The molecule is `Cc1nc2ccc(F)cc2n1-c1cc(N)nc(Nc2ccccc2)n1`
Result: 158 to 161 °C

Task: I'd like to know its melting point. The molecule in question is `CCc1nc2ccc(F)cc2n1-c1cc(N)nc(Nc2ccc(Cl)c(F)c2)n1`
Result: 209 to 211 °C

Task: Requested read-out: melting point. Entry: `Cc1nc2ccc(F)cn2c1-c1cc(N)nc(Nc2ccc(F)cc2)n1`
Result: 250 to 253 °C

Task: // melting point lookup, key: `COc1ccc(Nc2nc(N)cc(-n3c(C)nc4cc(C)c(C)cc43)n2)cc1Cl`
Result: 129 to 131 °C

Task: # lookup: melting point of `CCc1nc2ccc(F)cc2n1-c1cc(N)nc(Nc2ccc(OC)cc2)n1`
Result: 166 to 168 °C

Task: Report melting point for `COc1cccc(Nc2nc(N)cc(-n3c(C)nc4ccc(F)cc43)n2)c1` please.
Result: 127 to 129 °C
